Taken from ChEMBL document CHEMBL1201862.

tested on: SF-268; assay: NCI tumour cell line growth inhibition, 48 h
The source made the active and inactive calls. Rule as the data show it: active = GI50 up to about 1.1 µM and inactive = higher.
Reported GI50 is given for each of the following molecules.

{"MOLECULE": "CCN(CC)CCCNc1ncc(C)c2c1c1ccc3c(O)cccc3c1n2C", "GI50": "2.5 µM (inactive)"}
{"MOLECULE": "COc1cc2c(c(OC)c1OC)-c1ccc(SC)c(=O)cc1C(CC(=O)Oc1ccccc1F)C2 (stereo not given)", "GI50": "0.036 µM (active)"}
{"MOLECULE": "COS(=O)CCOC(=O)c1ccccc1SSc1ccccc1C(=O)OCCS(=O)OC (stereo not given)", "GI50": "32.3 µM (inactive)"}
{"MOLECULE": "CC(NNC(=O)c1cc[n+]([BH2-]C#N)cc1)c1ccc(Cl)cc1Cl (stereo not given)", "GI50": "41.2 µM (inactive)"}
{"MOLECULE": "COc1ccc2nc3c([N+](=O)[O-])ccc(NCCN(C)C)c3c(N)c2c1", "GI50": "1.34 µM (inactive)"}
